- Experimental system: murine E^d MHC class II allele (Mus musculus, UniProt P01904+P01915)
- Sequence (P01904 26-255): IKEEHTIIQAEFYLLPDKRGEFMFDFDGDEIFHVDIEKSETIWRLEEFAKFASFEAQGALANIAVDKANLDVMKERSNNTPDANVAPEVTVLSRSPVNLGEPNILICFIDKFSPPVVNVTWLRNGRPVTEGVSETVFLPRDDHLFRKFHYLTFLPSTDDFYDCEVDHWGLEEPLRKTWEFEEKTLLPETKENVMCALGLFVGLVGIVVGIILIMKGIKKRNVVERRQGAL
- Sequence (P01915 27-264 limits assumed): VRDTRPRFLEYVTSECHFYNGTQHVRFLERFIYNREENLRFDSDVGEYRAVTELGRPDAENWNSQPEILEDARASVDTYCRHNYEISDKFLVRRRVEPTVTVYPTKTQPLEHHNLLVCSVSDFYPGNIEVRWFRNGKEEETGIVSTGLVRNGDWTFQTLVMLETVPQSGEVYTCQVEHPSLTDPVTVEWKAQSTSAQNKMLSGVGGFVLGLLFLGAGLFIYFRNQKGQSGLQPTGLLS
- Assay procedure: simultaneous assay, E^d allele (A20 APC, G28.C9 T hybridoma, HEL106-116; HT-2 [3H]TdR readout)
- Assay type: cell-based
- Design: The A20 and CH27 B cell lymphoma lines express H-2^d and H-2^k alleles, respectively; endogenous in cells; host or cells: A20 B cell lymphoma (mitomycin C-treated or paraformaldehyde-fixed)
- Condition label: Table 9; AE peptide 64 μM; supernatant 1:4
# Times Baseline Response, E^d annotations

{"Substance": "Ac-LRMKLP F-NH2 (Ac-LRMKLPF-NH2) [AE248]", "Times Baseline Response, E^d": 17.2}
{"Substance": "Ac-LRMKLP H-NH2 [AE243]", "Times Baseline Response, E^d": 7.2}
{"Substance": "Ac-LRMKLPK-NH2 [AE114]", "Times Baseline Response, E^d": 7.7}
{"Substance": "Ac-LRMKLP E-NH2 [AE245]", "Times Baseline Response, E^d": 0.9}
{"Substance": "Ac-LRMKLP N-NH2 (Ac-LRMKLPN-NH2) [AE246]", "Times Baseline Response, E^d": 7.3}

---

- Experimental system: murine E^d MHC class II allele (Mus musculus, UniProt P01904+P01915)
- Assay procedure: simultaneous assay, E^d allele (A20 APC, G28.C9 T hybridoma, HEL106-116; HT-2 [3H]TdR readout)
- Format: cell-based
- Parameters: The A20 and CH27 B cell lymphoma lines express H-2^d and H-2^k alleles, respectively; endogenous in cells; host or cells: A20 B cell lymphoma (mitomycin C-treated or paraformaldehyde-fixed)
- Condition label: Table 9; AE peptide 64 μM; supernatant 1:4
Non-standard residues stand in square brackets, D forms with d. Cit = NC(=O)NCCC[C@H](N)C(=O)O; Orn = NCCC[C@H](N)C(=O)O
Strictly below 8 in Times Baseline Response, E^d: condition met. Otherwise: condition not met.

{"Substance": "Ac-LRMKLP M-NH2 [AE250]", "Discrete label": "condition not met"}
{"Substance": "Ac-LRMKLP[Orn]-NH2 [AE240]", "Discrete label": "condition not met"}
{"Substance": "Ac-LRMKLP L-NH2 [AE251]", "Discrete label": "condition not met"}
{"Substance": "Ac-LRMKLP Y-NH2 [AE249]", "Discrete label": "condition not met"}
{"Substance": "Ac-LRMKLP D-NH2 [AE244]", "Discrete label": "condition met"}
{"Substance": "Ac-LRMKLP Q-NH2 [AE247]", "Discrete label": "condition met"}
{"Substance": "Ac-LRMKLP[Cit]-NH2 [AE241]", "Discrete label": "condition met"}

---

- Experimental system: murine E^d MHC class II allele (Mus musculus, UniProt P01904+P01915)
- Sequence (P01904 26-255): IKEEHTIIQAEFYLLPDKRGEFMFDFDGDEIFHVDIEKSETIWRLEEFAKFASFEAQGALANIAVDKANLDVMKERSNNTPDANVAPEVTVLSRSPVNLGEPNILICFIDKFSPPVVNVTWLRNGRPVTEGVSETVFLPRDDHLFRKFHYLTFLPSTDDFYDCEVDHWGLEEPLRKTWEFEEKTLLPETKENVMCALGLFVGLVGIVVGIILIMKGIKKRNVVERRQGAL
- Sequence (P01915 27-264 limits assumed): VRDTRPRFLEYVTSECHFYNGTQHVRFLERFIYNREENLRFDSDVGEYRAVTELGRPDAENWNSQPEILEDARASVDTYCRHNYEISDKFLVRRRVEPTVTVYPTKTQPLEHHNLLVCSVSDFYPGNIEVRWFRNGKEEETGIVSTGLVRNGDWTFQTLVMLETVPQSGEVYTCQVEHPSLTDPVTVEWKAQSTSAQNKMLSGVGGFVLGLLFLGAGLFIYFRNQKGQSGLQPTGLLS
- Assay procedure: simultaneous assay, E^d allele (A20 APC, G28.C9 T hybridoma, HEL106-116; HT-2 [3H]TdR readout)
- Type: cell-based
- Design: The A20 and CH27 B cell lymphoma lines express H-2^d and H-2^k alleles, respectively; endogenous in cells; host or cells: A20 B cell lymphoma (mitomycin C-treated or paraformaldehyde-fixed)
- Condition label: Table 7; AE peptide 64 μM; supernatant 1:4
Non-standard residues stand in square brackets, D forms with d. hArg = N=C(N)NCCCC[C@H](N)C(=O)O
Overview of recorded Times Baseline Response, E^d for various substances
Reported endpoint: Times Baseline Response, E^d

{"Substance": "Ac-LRMK E PK-NH2 (Ac-LRMKEPK-NH2) [AE231]", "Reported endpoint": "Times Baseline Response, E^d", "Meas value": 1.8}
{"Substance": "Ac-LRMK Y PK-NH2 (Ac-LRMKYPK-NH2; not fully specified; printed as Ac-LRMK Y PK-NH2) [AE235]", "Reported endpoint": "Times Baseline Response, E^d", "Meas value": 14.6}
{"Substance": "Ac-LRMK M PK-NH2 (Ac-LRMKMPK-NH2) [AE236]", "Reported endpoint": "Times Baseline Response, E^d", "Meas value": 15.2}
{"Substance": "Ac-LRMK HArg PK-NH2 (Ac-LRMK[hArg]PK-NH2; SMILES CSCC[C@H](NC(=O)[C@H](CCCNC(=N)N)NC(=O)[C@H](CC(C)C)NC(C)=O)C(=O)N[C@@H](CCCCN)C(=O)N[C@@H](CCCCNC(=N)N)C(=O)N1CCC[C@H]1C(=O)N[C@@H](CCCCN)C(N)=O) [AE227]", "Reported endpoint": "Times Baseline Response, E^d", "Meas value": 8.1}
